- study target: 11β-HSD1 Dehydrogenase (Rattus norvegicus)
- Sequence (P16232 whole entry): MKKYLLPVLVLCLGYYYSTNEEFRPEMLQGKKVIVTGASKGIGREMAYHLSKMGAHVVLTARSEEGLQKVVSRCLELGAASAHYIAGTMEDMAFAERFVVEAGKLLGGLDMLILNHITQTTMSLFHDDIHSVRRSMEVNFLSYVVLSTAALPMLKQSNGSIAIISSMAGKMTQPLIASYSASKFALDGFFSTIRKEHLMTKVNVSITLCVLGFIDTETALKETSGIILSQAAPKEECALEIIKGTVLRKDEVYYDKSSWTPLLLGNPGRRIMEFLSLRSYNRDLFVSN
- experiment description: 11β-HSD1 dehydrogenase assay in rat Leydig cell homogenates;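 also: tritiated corticosterone conversion by 11β-HSD1 dehydrogenase in Leydig homogenates with 3 mM NADP at pH 8.4, 37 °C for 10 min, products resolved by HPLC, inhibition relative to uninhibited enzyme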
- Format: biochemical
- Set-up: Freshly prepared rat Leydig cell homogenates were chosen since they provide a rich and reliable source of both 11β-HSD1 dehydrogenase and reductase; from tissue; host or cells: rat testicular Leydig cells, homogenate
- recorded conditions: rat Leydig cell homogenates, 600 nM corticosterone, NADP; corticosteroid series
measurement name: Leydig Cell 11β-HSD1 Dehydrogenase [S]= 600 nM

# molecule, result
records = [
    ("C[C@]12CC[C@@H](O)C[C@@H]1CC[C@@H]1[C@@H]2[C@@H](O)C[C@@]2(C)[C@H]1CC[C@]2(O)C(=O)CO", "inactive"),
    ("C[C@]12CC[C@@H](O)C[C@H]1CC[C@H]1[C@@H]3CC[C@H](C(=O)CO)[C@@]3(C)CC(=O)[C@@H]12 [3α,5β-TH- 11 -dehydro-corticosterone, 5β-Pregnan-3α,21-diol-11,20-dione]", "inactive"),
    ("C[C@]12CC[C@@H](O)C[C@H]1CC[C@@H]1[C@@H]2[C@@H](O)C[C@]2(C)[C@@H](C(=O)CO)CC[C@@H]12", "inactive"),
]

Provenance of the data: patent US20070093460A1
